# runDescription: Evaluation of triphenylamine derivative solubility in tetrahydrofuran
# Type: physicochemical
# conditionContext: tetrahydrofuran, 25° C., {100/(100+W)}×100
valueKind: Solubility (%)
The reply should be a number in %, with the unit left off.

# example entries with known answers
# compound, units, testResult
records = [
    ("CCc1cccc(C)c1N(c1ccc(/C=C/C=C/c2ccc(C)cc2)cc1)c1ccc(-c2ccc(N(c3ccc(/C=C/C=C/c4ccc(C)cc4)cc3)c3c(C)cccc3CC)cc2)cc1", "%", 12),
    ("CCc1cccc(OC)c1N(c1ccc(/C=C/C=C/c2ccc(C)cc2)cc1)c1ccc(-c2ccc(N(c3ccc(/C=C/C=C/c4ccc(C)cc4)cc3)c3c(CC)cccc3OC)cc2)cc1", "%", 20),
    ("CCc1cccc(C)c1N(c1ccc(/C=C/C=C/c2ccccc2)cc1)c1ccc(-c2ccc(N(c3ccc(/C=C/C=C/c4ccccc4)cc3)c3c(C)cccc3CC)cc2)cc1", "%", 12),
    ("Cc1cccc(N(c2ccc(/C=C/C=C/c3ccccc3)cc2)c2ccc(-c3ccc(N(c4ccc(/C=C/C=C/c5ccccc5)cc4)c4cccc(C)c4)cc3)cc2)c1 [HT-B, reference compound]", "%", 7),
    ("Cc1ccccc1N(c1ccc(/C=C/C=C/c2ccccc2)cc1)c1ccc(-c2ccc(N(c3ccc(/C=C/C=C/c4ccccc4)cc3)c3ccccc3C)cc2)cc1", "%", 14),
]

Enquiry: Identify Solubility associated with the compound `CCc1cccc(C)c1N(c1ccc(/C=C/C=C/c2cccc(OC)c2)cc1)c1ccc(-c2ccc(N(c3ccc(/C=C/C=C/c4cccc(OC)c4)cc3)c3c(CC)cccc3OC)cc2)cc1`
Return: 18

Enquiry: Identify Solubility associated with the compound `Cc1ccc(N(c2ccc(/C=C/C=C/c3ccccc3)cc2)c2ccc(-c3ccc(N(c4ccc(/C=C/C=C/c5ccccc5)cc4)c4ccc(C)cc4C)cc3)cc2)c(C)c1`
Return: 14

Enquiry: Identify Solubility associated with the compound `C(/C=C/c1ccc(N(c2ccc(-c3ccc(N(c4ccc(/C=C/C=C/c5ccccc5)cc4)c4ccccc4-c4ccccc4)cc3)cc2)c2ccccc2-c2ccccc2)cc1)=C\c1ccccc1`
Return: 12
